# SYSTEM_NAME: D4 (Homo sapiens, UniProt P21917)
# Sequence (P21917 whole entry): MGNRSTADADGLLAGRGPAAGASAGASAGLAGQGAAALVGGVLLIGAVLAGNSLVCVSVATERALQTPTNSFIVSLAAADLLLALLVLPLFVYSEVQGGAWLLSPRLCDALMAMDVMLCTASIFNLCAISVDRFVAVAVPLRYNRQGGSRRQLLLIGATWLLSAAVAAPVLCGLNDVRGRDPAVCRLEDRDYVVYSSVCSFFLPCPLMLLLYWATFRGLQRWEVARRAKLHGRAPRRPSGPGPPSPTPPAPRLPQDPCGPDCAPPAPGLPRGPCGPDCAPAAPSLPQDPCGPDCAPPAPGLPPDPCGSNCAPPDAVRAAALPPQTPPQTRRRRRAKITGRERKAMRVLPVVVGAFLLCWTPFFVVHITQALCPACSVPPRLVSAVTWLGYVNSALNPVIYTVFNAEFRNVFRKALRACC
# ASSAY_EXPLANATION: Radioligand displacement, D4
# Assay type: binding
QUANTITY_NAME: Ki

# COMPOUND, SYSTEM_NAME, Ki
measured = [
    ("N=C(N)Nc1ccc2[nH]c3c(c2c1)C[C@@]1(O)[C@H]2Cc4ccc(O)c5c4[C@@]1(CCN2CC1CC1)[C@H]3O5 [GNTI, 5′-guanidinonaltrindole]", "D4 (Homo sapiens, UniProt P21917)", "≥ 10 µM"),
]

// next item, Ki requested
Give the measured Ki of Oc1ccc2c3c1O[C@H]1c4[nH]c5c(c4C[C@@]4(O)[C@@H](C2)N(CC2CC2)CC[C@]314)C[C@@]1(O)[C@H]2Cc3ccc(O)c4c3[C@@]1(CCN2CC1CC1)[C@H]5O4 [nor-BNI, Nor-binaltorphimine] .
≥ 10 µM
